Sourced from PubChem BioAssay (NCATS)

Tested on: MCC-26
Assay: qHTS assay to identify novel small-molecules to repurpose for Merkel cell carcinoma treatment (AID 1296009); also: nearly all actives have a fitted effect of over 60% in size
Conditions: MCC and control cell lines, CellTiter-Glo viability, 72 h; series mostly up to 46 µM
Inconclusive results are not listed. Calls of active or inactive are those of the source. Calls follow the shape of the dose curve; as a rule, active = well fitted inhibition curve with a large enough effect; inconclusive = small, poorly fitted or top-dose-only effect; inactive = flat fitted curve, though single readings scatter. Residues, ends and D or L forms follow the SMILES beside them. *: point of attachment. Cbz = O=C(OCc1ccccc1)*
Possible outcomes: y = active, n = inactive

>>> label_value("CN1CCCN(C(=O)c2cccc(-c3ccc(C=C4C(=O)Nc5ccc(Cl)cc54)o3)c2)CC1")
"n"
>>> label_value("Cc1onc(-c2ccccc2)c1C(=O)N[C@@H]1C(=O)N2[C@@H](C(=O)O)C(C)(C)S[C@@H]12")
"n"
>>> label_value("C#C[C@]1(O)CC[C@@H]2[C@@H]3CCC4=CC(=O)CC[C@@H]4[C@H]3CC[C@@]21CC")
"n"
>>> label_value("O=C1CSC(=O)N1C(CCc1ccncc1)COc1ccc(-c2cccc([N+](=O)[O-])c2)cc1 (configuration not stated)")
"n"
>>> label_value("CC(C)(C)c1nc2c3cc[nH]c(=O)c3c3cc(F)ccc3c2[nH]1")
"n"
>>> label_value("N#Cc1c(C2CCNCC2)cc(-c2c(O)cccc2OCC2CC2)nc1N")
"n"
>>> label_value("CC(C)C[C@@H](C=O)NC(=O)[C@H](CC(C)C)NC(=O)[C@H](CC(C)C)NC(=O)OCc1ccccc1 (Cbz-Leu-Leu-Leu-aldehyde)")
"y"
>>> label_value("CC1(C)[C@H](O[C@H]2O[C@H](C(=O)O)[C@@H](O)[C@H](O)[C@H]2O[C@@H]2O[C@H](C(=O)O)[C@@H](O)[C@H](O)[C@H]2O)CC[C@@]2(C)[C@H]1CC[C@]1(C)[C@H]2C(=O)C=C2[C@H]3C[C@@](C)(C(=O)O)CC[C@]3(C)CC[C@]21C")
"n"
>>> label_value("C#C[C@]1(O)CC[C@@H]2[C@@H]3CCc4cc(O)ccc4[C@H]3CC[C@@]21C")
"n"
>>> label_value("O=C(O)C=Cc1ccc(Cn2ccnc2)cc1")
"n"
>>> label_value("C=C1C[C@@]2(O)O[C@@]3(C[C@H]2C(C)C)[C@H](C)CC[C@H]13")
"n"
>>> label_value("CC(=O)C1=C(O)C=C2Oc3c(C(C)=O)c(O)c(C)c(O)c3C2(C)C1=O (configuration not stated)")
"n"
>>> label_value("CC(O)(C#Cc1ccc2c(c1)N(c1nc(N)ncc1Cl)CC2)c1nccs1 (configuration not stated)")
"n"
>>> label_value("CN(C)CC(=O)N1CCC(c2ccc(NC(=O)c3ncc(C#N)[nH]3)c(C3=CCCCC3)c2)CC1")
"n"
>>> label_value("CC(=O)NCC(=O)N1[C@H]2CC[C@H]1c1cc(Nc3ncc(C(F)(F)F)c(NC4CCC4)n3)ccc12")
"y"
>>> label_value("CCOc1cc2ncc(C#N)c(Nc3ccc(OCc4ccccn4)c(Cl)c3)c2cc1NC(=O)C=CCN(C)C")
"n"
>>> label_value("C=C1CCC2[C@](C)(CO)C(O)CC[C@]2(C)C1CC=C1C(=O)OCC1O (some centres not stated)")
"n"
